Numbers sourced from patent US20080112961A1.

Molecular target: T1, FcγRIIB (form not stated) (UniProt P31994 43-217, limits assumed)
T1 construct: also called FcγRIIB (ELISA)
T1 sequence (looked up): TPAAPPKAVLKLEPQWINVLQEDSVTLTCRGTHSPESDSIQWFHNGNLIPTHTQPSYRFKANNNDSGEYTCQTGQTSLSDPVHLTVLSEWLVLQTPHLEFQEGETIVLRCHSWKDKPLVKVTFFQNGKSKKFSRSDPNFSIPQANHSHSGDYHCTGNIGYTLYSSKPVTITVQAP
Experiment: ELISA

Binder	binding result
ch4-4-20 T335N, K370E, A378V, T394M, S424L (antibody) heavy: ASTKGPSVFPLAPSSKSTSGGTAALGCLVKDYFPEPVTVSWNSGALTSGVHTFPAVLQSSGLYSLSSVVTVPSSSLGTQTYICNVNHKPSNTKVDKKVEPKSCDKTHTCPPCPAPELLGGPSVFLFPPKPKDTLMISRTPEVTCVVVDVSHEDPEVKFNWYVDGVEVHNAKTKPREEQYNSTYRVVSVLTVLHQDWLNGKEYKCKVSNKALPAPIEKNISKAKGQPREPQVYTLPPSRDELTKNQVSLTCLVEGFYPSDIVVEWESNGQPENNYKTMPPVLDSDGSFFLYSKLTVDKSRWQQGNVFLCSVMHEALHNHYTQKSLSLSPGK	binds
